Reported TGI values for a set of molecules
Test system: PC-3 prostate
Test: NCI tumour cell line growth inhibition, 48 h
Give the quantity in µM, number only.

Some molecules with known TGI results, for comparison:
CC(C)(C)c1ccc(S(=O)(=O)N[C@H]2CC[C@H]3[C@@H]4CCc5cc(O)ccc5[C@H]4CC[C@]23C)cc1 :: 7.57
Cc1ccc(Nc2nnc3n2S(=O)(=O)c2cc(C)c(Cl)cc2S3)cc1 :: 27.3
CN(C)CCNc1nc2ccccc2c2c1C(=O)c1ccccc1-2 :: 1.9
Cn1c(COC(=O)NCCN2CCOCC2)nc2c(N3CCOCC3)nc(-c3ccccc3)nc21 :: 3
CCCCCCN(CCCCCC)CC(O)c1cccc2ccc(Cl)cc12 (configuration not stated) :: 25
CN(C)CCn1c(=O)c2ccc(NCCNCCO)c3c(=O)c4cc(O)ccc4n(c1=O)c23 :: 25.1
C[C@@H](C[C@@H](O)[C@H](O)C(C)(C)O)[C@H]1CC=C2[C@]3(C)[C@H](O)C[C@H]4C(C)(C)[C@H](O)CC[C@]4(C)[C@H]3CC[C@@]21C :: 28
CN(C)CCNC(=O)c1cccc2c(NC(CS)C(=O)O)c3ccccc3nc12 (configuration not stated) :: 28.2
C[C@]12CC[C@@H]3c4ccc(O)cc4CC[C@H]3[C@@H]1CC[C@@H]2NS(=O)(=O)c1ccc(-c2ccccc2)cc1 :: 48.9

Now for a further molecule.
Query: I'd like to know its TGI. The molecule in question is "BrCC[P+](c1ccccc1)(c1ccccc1)c1ccccc1"
Reply: 17.3
